# Test system: Hepatitis C virus subtype 1a
# protocol text: Selectivity ratio of EC90 for NS5A Y93H mutant in HCV genotype 1a to EC90 for NS5A in HCV genotype 1a
Provide the reported Selectivity ratio of each item.
Numbers only.

compound	Selectivity ratio
COC(=O)N[C@H](C(=O)N1CCC[C@H]1c1ncc(-c2cc(F)c3c(c2)OC(c2ccccc2)n2c-3cc3cc(-c4cnc([C@@H]5C[C@H]6C[C@H]6N5C(=O)[C@@H](NC(=O)OC)C(C)C)[nH]4)ccc32)[nH]1)C(C)C (stereo partly drawn)	200
COC(=O)N[C@H](C(=O)N1CCC[C@H]1c1ncc(-c2cc(F)c3c(c2)OC(c2cccc(OC)c2)n2c-3cc3cc(-c4cnc([C@@H]5CCCN5C(=O)[C@@H](NC(=O)OC)C(C)C)[nH]4)ccc32)[nH]1)C(C)C (stereo partly drawn)	230

Let us examine a further case.
// query Selectivity ratio value for entry COC(=O)N[C@H](C(=O)N1CCC[C@H]1c1ncc(-c2cc(F)c3c(c2)OC(c2ccc4c(c2)OCCC4)n2c-3cc3cc(-c4cnc([C@@H]5C[C@H]6C[C@H]6N5C(=O)[C@@H](NC(=O)OC)C(C)C)[nH]4)ccc32)[nH]1)C(C)C (stereo partly drawn)
30
